Source listed as ChEMBL document CHEMBL1136345.

- SYSTEM: Histone deacetylase
- PROTOCOL_SUMMARY: Inhibitory activity against Histone deacetylase (HDAC) in K 562 erythroleukemia cells (Radioactivity based HDAC assay)
- Design: species or system Homo sapiens
// reported IC50 per item

// known answers, use as guide
{"MOLECULE": "OC(CCCCCCOc1cccc(-c2ccccc2)c1)c1ncco1 (configuration not stated)", "ENDPOINT_LABEL": "IC50", "RESULT": "> 50 µM"}
{"MOLECULE": "O=C(CCCCCC(=O)c1ncco1)NNc1ccc(Cl)cc1", "ENDPOINT_LABEL": "IC50", "RESULT": "> 10 µM"}
{"MOLECULE": "O=C(c1ncco1)[C@@H]1C[C@H]1CCCCOc1ccc(Oc2ccccc2)cc1", "ENDPOINT_LABEL": "IC50", "RESULT": "> 50 µM"}

Exam item: Under Histone deacetylase: IC50 value of O=C(CCCCCCOc1ccc(-c2ccccc2)cc1)c1nc2ncccc2o1 ?
Marked response: > 50 µM

Exam item: Under Histone deacetylase: IC50 value of O=C(CCCCCCOc1ccc(-c2ccccc2)cc1)c1nccs1 ?
Marked response: > 50 µM

Exam item: Under Histone deacetylase: IC50 value of Cn1cncc1C(=O)CCCCCCOc1ccc(-c2ccccc2)cc1 ?
Marked response: > 50 µM

----------
- PROTOCOL_SUMMARY: Anti-proliferative activity against MDA-435 cells mediated by HDAC inhibition
- Assay type: functional, cell-based
- MEASUREMENT_CONDITIONS: Homo sapiens, MDA435
ENDPOINT_LABEL: pIC50
Value format note: pIC50 is -log10 of concentration (mol/L); just state the number.

Exam item: Can you share its pIC50? I mean this compound: COc1ccc(-c2csc(NC(=O)CCCCCCC(=O)c3ncco3)n2)cc1
Marked response: 5.64

----------
- SYSTEM: Histone deacetylase
- PROTOCOL_SUMMARY: In vitro inhibition of Histone deacetylase in K 562 erythroleukemia cells.
- Design: species or system Homo sapiens
ENDPOINT_LABEL: IC50 (nM)

{"MOLECULE": "O=C(CCCCC/C=C/c1ccc(-c2ccccc2)cc1)c1ncco1", "ENDPOINT_LABEL": "IC50", "RESULT": 990}
{"MOLECULE": "O=C(NCCCCCC(=O)c1ncco1)c1cc2ccccc2[nH]1", "ENDPOINT_LABEL": "IC50", "RESULT": 340}
{"MOLECULE": "O=C(CCCCCCSc1ccc2ccccc2c1)c1ncco1", "ENDPOINT_LABEL": "IC50", "RESULT": 540}
{"MOLECULE": "COc1ccc(-c2csc(NC(=O)CCCCCCC(=O)c3ncco3)n2)cc1", "ENDPOINT_LABEL": "IC50", "RESULT": 30}

P: O=C(CCCCCCOc1ccc(-c2ccccc2)cc1)c1nnn[nH]1
Q: O=C(CCCCCCOc1ccc(-c2ccccc2)cc1)c1ncco1
Exam item: # argmax over IC50 for candidates P and Q # reply format: chosen label
Marked response: P

----------
- SYSTEM: Histone deacetylase
- PROTOCOL_SUMMARY: In vitro inhibition of Histone deacetylase in K 562 erythroleukemia cells.
- Design: species or system Homo sapiens
ENDPOINT_LABEL: IC50 (nM)

// known answers, use as guide
{"MOLECULE": "O=C(CCCCCCC(=O)c1ncco1)Nc1cccc(-c2ccccc2)c1", "SYSTEM": "Histone deacetylase", "IC50, nM": 60}
{"MOLECULE": "O=C(CCCCCCC(=O)c1ncco1)Nc1ccc(Cl)cc1", "SYSTEM": "Histone deacetylase", "IC50, nM": 320}
{"MOLECULE": "O=C(CCCCCCOc1cccc(-c2ccccc2)c1)c1ncco1", "SYSTEM": "Histone deacetylase", "IC50, nM": 620}
{"MOLECULE": "O=C(CCCCCCS(=O)(=O)c1ccc2ccccc2c1)c1ncco1", "SYSTEM": "Histone deacetylase", "IC50, nM": 610}
{"MOLECULE": "O=C(NCCCCCCC(=O)c1ncco1)c1cc2ccccc2[nH]1", "SYSTEM": "Histone deacetylase", "IC50, nM": 90}
{"MOLECULE": "O=C(CCCCCCC(=O)c1ncco1)Nc1ccc(Oc2ccccc2)cc1", "SYSTEM": "Histone deacetylase", "IC50, nM": 580}
{"MOLECULE": "O=C(CCCCCCNc1ccc2ccccc2c1)c1ncco1", "SYSTEM": "Histone deacetylase", "IC50, nM": 430}
{"MOLECULE": "O=C(CCCCCCOc1ccc2ccccc2c1)c1ncco1", "SYSTEM": "Histone deacetylase", "IC50, nM": 520}

A: O=C(CCCCCC(=O)c1ncco1)Nc1ccc(Cl)cc1
B: O=C(CCCCCC(=O)c1ncco1)NCc1ccc(Cl)cc1
Exam item: Hi, I'm comparing two records. Which one has the lower IC50, A or B ? # reply format: chosen label
Marked response: A
(A: 1500 nM, B: 6400 nM)
